# method_description: yeast display, Sf9 membrane polyspecificity reagent, FACS + sequencing; frameworks hold sequencing errors
value_kind: polyreactivity (PSR sort gate)

| item_sequence | polyreactivity (PSR sort gate) |
| --- | --- |
| QVQLVESGGGLVQAGGSLRLSCAASGFTFYSYAMGWYRQAPGKERELVAAITKRGGSTSYADSVKGRFTISRDNAKNTVYLQMNSLKPEDTAVYYCNRRATKAQYGDEVDYWGQGTQVTVSS | high polyreactivity |
| QVQLVESGGGLVQAGGSLRLSCAASGSIFYVNGMGWSRQAPGKERELVARITLSGTSTYYADSVKGRFTISRDNAKNTVYLQMNSLKPEDTAVYYCAAPYFTYGQDDDDYWGQGTQVTVSS | low polyreactivity |
| QVQLVESGGGLVQAGGSLRISSAASGFIFSLNAMGWYRQAPGKERELVASITRSGTRTYYADSVKGRFTISRDNAKKTDFLQRNSLKPEATAVDYCAARTKRSYEYQAFYYWGQGTQVTVSS | high polyreactivity |
| QVQLVESGGGSVQAGGSLRFSCADSGFTFRKNAMGWYRQAPGKERELVAAISVSGGRTYYADSVKGRFTISRDNAKNTFYLQMNSLKPEETAVYYCAARRYVLVHKDDYWGQGTQVTVSS | high polyreactivity |

Let us examine a further case.
Noted for `QVQLVESGGGLLQAGGSLRLSCAASGSTFYPYAMRWYRQAPGKERELVAAISSGGSTSYADSVKGRFTISRDNAKNTVYLQMNCLKPEDTAVYYCNGSSPGAVPVYDYDYWGQGTQVTVSS` : its polyreactivity (PSR sort gate) reads low polyreactivity

###

# method_description: yeast display, Sf9 membrane polyspecificity reagent, FACS + sequencing; frameworks hold sequencing errors
value_kind: polyreactivity (PSR sort gate)

| item_sequence | polyreactivity (PSR sort gate) |
| --- | --- |
| QVQLVESGGGLVQAGGSLRLSCAASGITFAVYAMGWYRQAPGKERELVAAITRGGGSTYYADSVKGRFSISRDNAKNTVYLQMNSLKPEHTAVYYCNADSIPEGNSRYSHFDYWGQGTQVTVSS | low polyreactivity |
| QVQLVESGGCLVQAGGSLRLSGAASGRTQVPYAMGWSRQAHGNERELVASISSGGSTNYADSVKGRFTISRDNAKNTVYLQMNSLKPEDTAVYYCNAEPIGSEVDYWGQGTQVTVAS | low polyreactivity |
| QVQLVESGGGLVQAGGSLRLSCAASGRIFSWYAMGWYRQAPGKERELVAAITVRGSTYYADSVKGRFTISRDNAKNTVYLQMNSLKPEDTAVYYCAAKSSRYAYDYWGQGTQVTVSS | low polyreactivity |
| QVQLVESGGGLVQAGGSLRLSCAASGSTFPYNAMGWYRQAPGKERELLAAISWRGGRTYYADSVKGRFTISRDNAKNTVYLQMNSLKPEYTGVFYCAVVLSTYSYADYDYWGQGTHVTVSS | high polyreactivity |

Let us examine a further case.
Noted for `QVQLVESGGGLVQAGGSLRLSCAASGYIFGPYAMGWYRQAPGKERELVAAITWRGGRTYADSVKGRFTISRDNAKNTVYLQMNSLKPEDTAVYFCATETGYSPFVYYSGRYGYWGQGTQVNVSS` : its polyreactivity (PSR sort gate) reads high polyreactivity

###

# method_description: yeast display, Sf9 membrane polyspecificity reagent, FACS + sequencing; frameworks hold sequencing errors
value_kind: polyreactivity (PSR sort gate)

See these solved cases before continuing.
| item_sequence | polyreactivity (PSR sort gate) |
| --- | --- |
| QVQLVESGGGLVQAGGSLRLSCAASGSIFTYYAMGWYRQAPGKERELVAAISWRSGSTYYADSVKGRFTISRDNAKNTVYLQMNSLKPEDTAVYYCAAEDFDYAVWYDYWGQGTQVTVSS | high polyreactivity |
| QVQLVESGGGLVQAGGSLRLSCAASGRIFGVYAMGCYRQAPGKDRELVAAISSTGGSTYYADSVKGRFTISRDNAKNTVYLQMNSMKPEDTAVYYCEYDYWGQGTQVTVSS | low polyreactivity |
| QVQLVESVGGLVHAGGSLRLSCAASGSTFRYNAMGWYRQAPGKDRELVAAISWSGGSTYYADSVKGRFTISRDNAKNTVYFQMNSLIPEDTAVYYCAKVYFWGALSPDKYDEDYWGQGTQVTVSS | low polyreactivity |
| QVQLVESGGGLVQAGGSLRISCAASGSIFQFNAMGWSRQAPGKERELVASISASGGSTYYADSVKGRFTISRDNAKNTVYLQMNSLKPEDTAVYYCAADFIRSWFIWRGSFDYWGLGTQVTVSS | low polyreactivity |
| QVQLVESGGGLVQAGGRLRLSCAASGFTFYYYTMGWYRQAPGKEREVVAAITWRGGSTNYADSVKGRFTISRDNAKNTVYLQMNSLKPEDTAVYYCAAVTYWFWPGMDYWGQGTQVTVSS | low polyreactivity |
| QVQLVESGGGLVQAGGSLRLSCAASGRIFPANAMGWYRQAPGKERELVAAIDYDGGSTYYADSVKGRFTISRDNAKNTVYLQMNSLKPEDTAVYYCAADFYDYEGSYYDYYWGQGTQVTVSS | high polyreactivity |
| QVQLVESGGGLVQAGGSLRLSCAASGRIFRYYAMGWYRQAPGKERELVAAIRYRSGGTYYADSVKGRFTISRDNAKNTVYLQMNCLKPEDTAVYYCNADKRLRGHGYDYWGQGTQVTVSS | high polyreactivity |
| QVQLVESGGGLVQAGGSLRLSCAASGRPSLLMLWDGIDRRLGKKGSWLPLLTLVTPTTYADSVKGRFTISRDNAKNTVYLQMNSLKPEDTAVYYCNADFRPLDHYVNWYYYWGQGTQVTVSS | low polyreactivity |
| QVQLVESGGGLVQAGGSLRLSCAASGFTFGYYVMGWYRQAPGKERELVAAITSGGSTYYADSVKGRFTISRDNAKNTVYLQMNSLKREDTAVYYCNKYGVVLPGFDYWGQGTQVTVSS | high polyreactivity |
| QVQLVESGGGLVQAGGSLRLSCAASGFTISRYAIGWYRQAPGKERELVAAITGSGGSTYYADSVKGRFTISRDNAKNTVYLQMNSLKPEDTAVYYCNTLKHYKREYDYWGQGTQVTVSS | high polyreactivity |

Noted for `QVPLVESGGGLVQAGGSLRISCAACGIIFFPYAMGWYRQAPGKEREFVAAITSRGGSTYYADSVKGRFTISRDNAKNTVYLQMNSLKPEDTAVYFCAADHLGRARGPWRYNYWGQGTQVTVSS` : its polyreactivity (PSR sort gate) reads low polyreactivity
